target: Muscarinic acetylcholine receptor M2 (Homo sapiens); type: functional, cell-based; also: assay procedure not described here
Sequence (P08172 whole entry): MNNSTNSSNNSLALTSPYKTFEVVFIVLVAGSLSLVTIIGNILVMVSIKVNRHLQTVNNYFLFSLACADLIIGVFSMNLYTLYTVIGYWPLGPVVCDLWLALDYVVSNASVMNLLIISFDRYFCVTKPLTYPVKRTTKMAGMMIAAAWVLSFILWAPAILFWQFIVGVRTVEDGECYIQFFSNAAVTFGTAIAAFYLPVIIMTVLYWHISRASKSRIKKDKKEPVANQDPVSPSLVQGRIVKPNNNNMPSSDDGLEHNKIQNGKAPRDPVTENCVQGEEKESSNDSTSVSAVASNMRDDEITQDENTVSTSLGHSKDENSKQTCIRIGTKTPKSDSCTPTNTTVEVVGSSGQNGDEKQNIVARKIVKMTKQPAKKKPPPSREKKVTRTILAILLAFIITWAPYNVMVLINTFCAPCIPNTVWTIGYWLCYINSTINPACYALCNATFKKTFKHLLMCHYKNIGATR
# key: entry, value: AC50
MEASURED ATTRIBUTE: AC50

1) NC1CCN(c2nc3c(cc2F)c(=O)c(C(=O)O)cn3-c2ccc(F)cc2F)C1 (centres undefined) [TOSUFLOXACIN] | > 30 µM
2) C[C@@H](NCCCc1cccc(C(F)(F)F)c1)c1cccc2ccccc12 | > 30 µM
3) CCCC(CCC)C(=O)O [VALPROIC ACID] | > 10 µM
4) CC(C)(C)C(=O)OCC(=O)[C@H]1CC[C@H]2[C@@H]3CCC4=CC(=O)CC[C@]4(C)[C@H]3CC[C@]12C [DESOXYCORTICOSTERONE PIVALATE] | > 10 µM
5) CCOC(=O)C1=C(C)NC(C)=C(C(=O)OC)C1c1cccc([N+](=O)[O-])c1 (centres undefined) [NITRENDIPINE] | > 10 µM
6) COc1cc2c(cc1OC)C(CCc1ccc(Cl)cc1)N(C)CC2 (centres undefined) [METHOPHOLINE] | > 10 µM
7) COc1cc2ncnc(Nc3ccc(F)c(Cl)c3)c2cc1NC(=O)/C=C/CN1CCCCC1 [DACOMITINIB ANHYDROUS] | > 30 µM
8) CNC1=Nc2ccc(Cl)cc2C(c2ccccc2)=[N+]([O-])C1 [CHLORDIAZEPOXIDE] | > 10 µM
9) O=C(O)c1ccccc1Nc1cc(Cl)ccc1C(=O)O [LOBENZARIT] | > 30 µM

###

# key: entry, value: AC50
target: B2 bradykinin receptor (Homo sapiens, UniProt P30411); also: assay procedure not described here
Sequence (P30411 whole entry): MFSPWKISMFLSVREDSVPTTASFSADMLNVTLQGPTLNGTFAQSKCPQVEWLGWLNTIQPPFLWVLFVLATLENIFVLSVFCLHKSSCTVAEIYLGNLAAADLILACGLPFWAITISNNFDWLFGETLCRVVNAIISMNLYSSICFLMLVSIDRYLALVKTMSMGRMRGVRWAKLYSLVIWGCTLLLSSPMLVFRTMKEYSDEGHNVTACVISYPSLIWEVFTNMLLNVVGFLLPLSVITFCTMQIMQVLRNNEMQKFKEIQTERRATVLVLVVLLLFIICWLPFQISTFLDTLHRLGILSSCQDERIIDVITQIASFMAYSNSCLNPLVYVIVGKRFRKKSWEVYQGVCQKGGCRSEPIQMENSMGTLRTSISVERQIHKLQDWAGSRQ
MEASURED ATTRIBUTE: AC50

1. Clc1ccc2c(N3CCN(CCCN4CCN(c5ccnc6cc(Cl)ccc56)CC4)CC3)ccnc2c1 | > 30 µM
2. CC(=O)[C@@]1(O)CC[C@H]2[C@@H]3C=C(Cl)C4=CC(=O)[C@@H]5C[C@@H]5[C@]4(C)[C@H]3CC[C@@]21C | > 10 µM
3. CCC1(c2ccccc2)CCC(=O)NC1=O (stereo not drawn) [GLUTETHIMIDE] | > 10 µM
4. Cc1onc(-c2ccccc2)c1-c1ccc(S(N)(=O)=O)cc1 | > 30 µM
5. C=CC[C@@H]1/C=C(\C)C[C@H](C)C[C@H](OC)[C@H]2O[C@@](O)(C(=O)C(=O)N3CCCC[C@H]3C(=O)O[C@H](/C(C)=C/[C@@H]3CC[C@@H](O)[C@H](OC)C3)[C@H](C)[C@@H](O)CC1=O)[C@H](C)C[C@@H]2OC [TACROLIMUS ANHYDROUS] | > 30 µM
6. CC(C)(C)NCC(O)c1cc(O)cc(O)c1 (stereo not drawn) | > 30 µM
7. C/C(=C\C(=O)OCCCCCCCCC(=O)O)C[C@@H]1OC[C@H](C[C@@H]2O[C@H]2[C@@H](C)[C@H](C)O)[C@@H](O)[C@H]1O | > 10 µM
8. O=C(O)CCNC(=O)c1ccccc1 | > 30 µM

###

# key: entry, value: AC50
Molecular target: Adenosine receptor A3 (Homo sapiens, UniProt P0DMS8); also: assay procedure not described here
Sequence (P0DMS8 whole entry): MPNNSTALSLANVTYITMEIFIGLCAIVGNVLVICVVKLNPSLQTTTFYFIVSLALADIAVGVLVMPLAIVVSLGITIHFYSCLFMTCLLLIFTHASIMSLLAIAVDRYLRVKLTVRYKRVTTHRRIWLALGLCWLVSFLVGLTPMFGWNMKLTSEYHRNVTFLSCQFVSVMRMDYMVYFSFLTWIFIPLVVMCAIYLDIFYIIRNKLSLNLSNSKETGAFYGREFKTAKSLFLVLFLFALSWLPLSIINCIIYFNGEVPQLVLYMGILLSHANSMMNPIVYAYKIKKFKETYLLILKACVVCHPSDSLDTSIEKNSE
MEASURED ATTRIBUTE: AC50

1) CC(=O)N[C@@H](CS)C(=O)O [ACETYLCYSTEINE] | > 30 µM
2) CC(C(=O)O)c1ccc(-c2ccccc2)c(F)c1 (stereo not drawn) [FLURBIPROFEN] | > 10 µM
3) C[C@H](CCC(=O)O)[C@H]1CC[C@H]2[C@@H]3[C@@H](O)C[C@@H]4C[C@H](O)CC[C@]4(C)[C@H]3CC[C@]12C [URSODIOL] | > 30 µM
4) CCCN[C@H]1CCc2nc(N)sc2C1 [PRAMIPEXOLE] | > 30 µM
5) CCCCCC(=O)O[C@]1(C(C)=O)CC[C@H]2[C@@H]3CCC4=CC(=O)CC[C@]4(C)[C@H]3CC[C@@]21C [HYDROXYPROGESTERONE CAPROATE] | 18.4 µM
6) CN1C[C@H](C(=O)N[C@]2(C)O[C@@]3(O)[C@@H]4CCCN4C(=O)[C@H](Cc4ccccc4)N3C2=O)C=C2c3cccc4[nH]cc(c34)C[C@H]21 [ERGOTAMINE] | > 30 µM
7) O=C1CCc2cc(OCCCCc3nnnn3C3CCCCC3)ccc2N1 [CILOSTAZOL] | 18.2 µM
8) OC1(c2ccc(Cl)cc2)c2ccccc2C2=NCCN21 (stereo not drawn) [MAZINDOL] | 9.6 µM
9) O=C(O)c1ccccc1Nc1cc(Cl)ccc1C(=O)O [LOBENZARIT] | > 30 µM
10) CC(=O)OCC(=O)[C@@]1(O)[C@H](C)C[C@H]2[C@@H]3CCC4=CC(=O)C=C[C@]4(C)[C@@]3(F)[C@@H](O)C[C@@]21C [DEXAMETHASONE ACETATE] | > 30 µM
11) Cn1c(=O)cc(N2CCC[C@@H](N)C2)n(Cc2ccccc2C#N)c1=O [ALOGLIPTIN] | > 30 µM
12) CN(C)CCc1c[nH]c2ccc(Cn3cncn3)cc12 [RIZATRIPTAN] | > 30 µM
13) C/C(=C\C(=O)OCCCCCCCCC(=O)O)C[C@@H]1OC[C@H](C[C@@H]2O[C@H]2[C@@H](C)[C@H](C)O)[C@@H](O)[C@H]1O [MUPIROCIN] | > 10 µM
